procedure-summary: self-splicing fitness, log relative to wild type (ln ratio); higher = more splicing; Tetrahymena group I intron in knt gene, E. coli kanamycin selection, DiMSum; sequences stand for … in CUCUCU…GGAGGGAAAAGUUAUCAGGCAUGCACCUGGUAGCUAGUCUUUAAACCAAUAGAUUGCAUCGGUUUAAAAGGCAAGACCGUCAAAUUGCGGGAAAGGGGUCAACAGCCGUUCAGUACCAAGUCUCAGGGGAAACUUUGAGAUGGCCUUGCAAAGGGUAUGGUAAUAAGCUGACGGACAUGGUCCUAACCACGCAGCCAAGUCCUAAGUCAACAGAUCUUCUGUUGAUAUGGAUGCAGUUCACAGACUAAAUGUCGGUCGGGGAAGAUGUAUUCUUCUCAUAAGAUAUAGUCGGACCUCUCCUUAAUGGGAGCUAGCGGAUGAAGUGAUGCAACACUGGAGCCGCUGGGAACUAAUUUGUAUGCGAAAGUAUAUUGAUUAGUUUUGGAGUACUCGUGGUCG;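 further: selection with 25 µg/mL kanamycin versus none on LB agar overnight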
conditions: 37 °C
self-splicing fitness (ln) listing for selected sequences.
Give a plain numeric answer without units written out.

# annotated cases, reported self-splicing fitness (ln) shown
INSERT INTO results (input_sequence, value_measured) VALUES
  ('UUCGAGCAAUAUUACGAGUC', -2.03),
  ('UUAUAGCAAUAUUACGCUGU', -1.06),
  ('AAAGAGCAAUAUUACGGCAC', -2.01);

Asked: Answer with reported self-splicing fitness (ln) of CGUAAGCAAUAUUACGAGGG
Given back: -1.86

Asked: Answer with reported self-splicing fitness (ln) of GUGGAGCAAUAUUACGAUUC
Given back: 0.0106

Asked: Answer with reported self-splicing fitness (ln) of GGAAAGCAAUAUUACGUACC
Given back: -2.35

Asked: Answer with reported self-splicing fitness (ln) of UCCGAGCAAUAUUACGUGCG
Given back: -2.63

Asked: Answer with reported self-splicing fitness (ln) of GGGAAGCAAUAUUACGAAGC
Given back: -1.75

Asked: Answer with reported self-splicing fitness (ln) of CCAAAGCAAUAUUACGGAGU
Given back: -2.35

###

procedure-summary: self-splicing fitness, log relative to wild type (ln ratio); higher = more splicing; Tetrahymena group I intron in knt gene, E. coli kanamycin selection, DiMSum; sequences stand for … in CUCUCU…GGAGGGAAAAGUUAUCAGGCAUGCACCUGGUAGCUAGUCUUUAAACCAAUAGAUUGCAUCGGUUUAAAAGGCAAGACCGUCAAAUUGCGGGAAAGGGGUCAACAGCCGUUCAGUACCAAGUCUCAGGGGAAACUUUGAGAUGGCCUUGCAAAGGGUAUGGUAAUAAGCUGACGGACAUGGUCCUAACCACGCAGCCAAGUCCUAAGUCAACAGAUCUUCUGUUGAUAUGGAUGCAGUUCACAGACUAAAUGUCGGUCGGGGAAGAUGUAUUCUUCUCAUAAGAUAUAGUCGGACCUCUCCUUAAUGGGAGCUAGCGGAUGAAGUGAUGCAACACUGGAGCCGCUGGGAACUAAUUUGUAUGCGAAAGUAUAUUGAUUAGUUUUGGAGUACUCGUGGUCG
conditions: 30 °C
self-splicing fitness (ln) listing for selected sequences.

# annotated cases, reported self-splicing fitness (ln) shown
INSERT INTO assay_data (input_sequence, quantity_name, value_measured) VALUES
  ('UGGGAGCAAUAUUACGUAGC', 'self-splicing fitness (ln)', -3.22),
  ('UUUAAGCAAUAUUACGAGGA', 'self-splicing fitness (ln)', -1.85),
  ('GUCAAGCAAUAUUACGACAC', 'self-splicing fitness (ln)', -0.691),
  ('CCUUAGCAAUAUUACGGCUU', 'self-splicing fitness (ln)', -3.99),
  ('CCAAAGCAAUAUUACGGAGU', 'self-splicing fitness (ln)', -2.7);

Asked: Answer with reported self-splicing fitness (ln) of UCAUAGCAAUAUUACGUGCA
Given back: -1.06

Asked: Answer with reported self-splicing fitness (ln) of CCUCAGCAAUAUUACGUUCG
Given back: -2.69

Asked: Answer with reported self-splicing fitness (ln) of UUUGAGCAAUAUUACGCUUC
Given back: -2.18

Asked: Answer with reported self-splicing fitness (ln) of UCUGAGCAAUAUUACGGUUU
Given back: -3.14

Asked: Answer with reported self-splicing fitness (ln) of AGUGAGCAAUAUUACGCCUG
Given back: -3.85

Asked: Answer with reported self-splicing fitness (ln) of UCCCAGCAAUAUUACGAAUA
Given back: -2.11

Asked: Answer with reported self-splicing fitness (ln) of GGUGAGCAAUAUUACGUGCG
Given back: -0.62

Asked: Answer with reported self-splicing fitness (ln) of UACAAGCAAUAUUACGGUGU
Given back: -3.91
